Assay: viability of PTEN-null HCT116 cells – cell-based, HCT116 clonal line, CellTiter-Glo, pilot screen (AID 824);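 also: 0% = 20 µM Hyamine control and 100% = vehicle cell control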
Settings: HCT116 PTEN-deleted viability, 60 h, at 10 µM, hits give low values
Inconclusive results are not listed.
property_measured: viability (%)
Dear colleague, please return just the value in %, with no unit written.

> print(dat)
                                   compound  property.measured  value.units  endpoint.result
1                CC(=N)C1=C(O)CC(C)(C)CC1=O          viability            %              105
2     CN1CCN(C(=O)c2ccccc2NC(=O)c2cccs2)CC1          viability            %             91.7
3  CCN(CC)c1ccc(NC(=O)CN2C(=O)CC(C)(C)S(=O)(=O)c3ccccc32)c(C)c1          viability            %             78.1
4   CCCCSc1nc2c(cnn2-c2ccc(F)cc2)c(=O)[nH]1          viability            %             93.7
5  CCn1cc(C(=O)NCCC2=CCCCC2)c(=O)c2cc(S(=O)(=O)N(C)C)ccc21          viability            %             72.6

Suppose we examine the compound "O=C(COc1ccc(=O)n(-c2ccccc2)n1)Nc1ccccc1" ; what viability value has been reported?
98.6

Now consider Cc1cc(C)cc(N(CC(=O)NCC2CCCO2)S(=O)(=O)c2c(C)noc2C)c1 (stereo not given) .
90.5

Now consider "Cc1cc(C)n2nc(S(=O)(=O)N(C)c3ccccc3)nc2n1" .
98.1

Now consider "COc1ccc(-n2c(SCC(=O)Nc3nccs3)nc3c(c2=O)SCC3)cc1" .
84.6

Now consider "CCC(=O)N1CCN(c2nc(-c3ccccc3)c3c(c2C#N)CCCC3)CC1" .
73.1
